Molecular target: human EP2 (Homo sapiens, UniProt P43116)
Construct: expressed in transfected cells; host or cells: CHO cells (EP2-CHO)
Sequence (P43116 whole entry): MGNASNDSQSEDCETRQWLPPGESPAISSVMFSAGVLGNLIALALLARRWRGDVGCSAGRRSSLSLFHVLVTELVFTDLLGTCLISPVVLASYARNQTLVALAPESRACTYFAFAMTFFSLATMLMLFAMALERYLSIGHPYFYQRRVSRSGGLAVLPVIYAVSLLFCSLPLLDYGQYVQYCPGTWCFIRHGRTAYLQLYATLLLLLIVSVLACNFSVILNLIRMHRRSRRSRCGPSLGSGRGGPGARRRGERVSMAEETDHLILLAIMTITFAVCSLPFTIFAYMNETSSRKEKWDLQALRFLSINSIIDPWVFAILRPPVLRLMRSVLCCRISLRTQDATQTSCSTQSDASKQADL
Assay: Measurement of EP2 agonist activity (measurement of cAMP concentration)
Type: cell-based
Conditions: EP2-CHO cells, cAMP production (HTRF), reaction 30 minutes at room temperature; read-out: EP2 agonist activity EC50
METRIC NAME: EC50 (nM)

>  <MOLECULAR STRING>
O=C(O)c1csc([C@H]2CC[C@@H]3[C@@H](COc4ccc5c(c4F)CCC5)[C@H](O)C[C@@H]3O2)n1

>  <ENDPOINT VALUE>
2.4

$$$$
>  <MOLECULAR STRING>
CSc1cc(OC[C@@H]2[C@H]3CC[C@H](c4nc(C(=O)O)cs4)O[C@H]3C[C@@H]2O)ccc1C

>  <ENDPOINT VALUE>
0.074

$$$$
>  <MOLECULAR STRING>
O=C(O)c1csc([C@H]2CC[C@@H]3[C@@H](COc4ccc5[nH]ccc5c4)[C@H](O)C[C@@H]3O2)n1

>  <ENDPOINT VALUE>
19

$$$$
>  <MOLECULAR STRING>
O=C(O)c1csc([C@H]2CC[C@@H]3[C@@H](COc4ccc(C5CC5)c(C5CC5)c4)[C@@H](O)C[C@@H]3O2)n1

>  <ENDPOINT VALUE>
2.8

$$$$
>  <MOLECULAR STRING>
CCc1ccc(OC[C@@H]2[C@H]3CC[C@H](c4nc(C(=O)O)cs4)O[C@H]3C[C@@H]2O)cc1C1CCC1

>  <ENDPOINT VALUE>
3.5

$$$$
>  <MOLECULAR STRING>
CCc1ccc(OC[C@@H]2[C@H]3CC[C@H](c4nc(C(=O)O)cs4)O[C@H]3C[C@@H]2O)cc1CC

>  <ENDPOINT VALUE>
1.6

$$$$

I. O=C(O)c1csc([C@H]2CC[C@@H]3[C@@H](COc4ccc5c(c4)CCC5)[C@@H](O)C[C@@H]3O2)n1
II. O=C(O)c1csc([C@H]2CC[C@@H]3[C@@H](COc4ccc5c(c4)CC5)[C@H](O)C[C@@H]3O2)n1
III. O=C(O)c1csc([C@H]2CC[C@@H]3[C@@H](COc4ccc5ccoc5c4)[C@H](O)C[C@@H]3O2)n1
IV. Cc1ccc(OC[C@@H]2[C@H]3CC[C@H](c4nc(C(=O)O)cs4)O[C@H]3C[C@@H]2O)cc1Cl
Exercise: Could you please order the items by EC50, going from the lowest number to the highest? Output the labels ranked as instructed.
Key: IV, I, III, II

I. O=C(O)c1csc([C@H]2CC[C@@H]3[C@@H](COc4ccc5c(c4)CCCCC5)[C@@H](O)C[C@@H]3O2)n1
II. O=C(O)c1csc([C@H]2CC[C@@H]3[C@@H](COc4ccc5c(c4)CCC5)[C@H](O)C[C@@H]3O2)n1
Exercise: I'd appreciate it if you could identify which of I and II has the greater EC50. API: response body contains the label of the selected item.
Key: II
(II: 7.5 nM, I: 1.6 nM)

I. Cc1cc(OC[C@@H]2[C@H]3CC[C@H](c4nc(C(=O)O)cs4)O[C@H]3C[C@H]2O)ccc1[N+](=O)[O-]
II. Cc1cc(OC[C@@H]2[C@H]3CC[C@H](c4nc(C(=O)O)cs4)O[C@H]3C[C@H]2O)ccc1Cl
III. O=C(O)c1csc([C@H]2CC[C@@H]3[C@@H](COc4ccc(Cl)c(C5CC5)c4)[C@H](O)C[C@@H]3O2)n1
Exercise: Could you please order the items by EC50, going from the lowest number to the highest? Output the labels ranked as instructed.
Key: I, II, III

Numbers sourced from patent US9890146B2.
